Let's look at some compounds and their measured TGI.
- System: SF-268 CNS
- ASSAY_NAME: NCI tumour cell line growth inhibition, 48 h

Ask | Give recorded TGI. `CCOC(=O)c1nnsc1NC(=O)Nc1ccc(Cc2ccc(NC(=O)Nc3snnc3C(=O)OCC)cc2)cc1`
Reply | > 100 µM

----------
- System: RXF-631 renal
- ASSAY_NAME: NCI tumour cell line growth inhibition, 48 h
Reported TGI values are given for each entry in this list.

Use the examples below as a reference point.
INSERT INTO results (entry_smiles, value) VALUES
  ('Cc1cc(CC(=O)NCCO)n(CCO)c(=O)c1', '> 100 µM'),
  ('CN(/N=C/c1cccc2cccnc12)c1ccc([N+](=O)[O-])cc1[N+](=O)[O-]', '> 100 µM'),
  ('CCN(CC)CCNc1ccc2nnn3c4ccc(C)cc4c(=O)c1c23', '18.4 µM'),
  ('CC1(C)O[C@H]2[C@H](O)C[C@](O)(CO)C[C@H]2O1', '> 100 µM');

Next item in the queue.
Ask | For RXF-631 renal, give the measured TGI of the entry `O=C1N(C2CCCCC2)CC12CCCCC2`
Reply | > 100 µM

----------
- System: MDA-MB-435
- ASSAY_NAME: NCI tumour cell line growth inhibition, 48 h
MEASUREMENT_TYPE: TGI (µM)
Reply with just the number (in µM).

Illustrative cases are given below, each with its answer.
INSERT INTO assay_data (molecule, measurement_type, value) VALUES
  ('CCN1CCC(O)(c2ccc(Oc3ccccc3)cc2)C(C(=O)c2ccc(Oc3ccccc3)cc2)C1 (centres undefined)', 'TGI', 26.2),
  ('Fc1ccc(C(OCCN2CCN(CCCCl)CC2)c2ccc(F)cc2)cc1', 'TGI', 32.1),
  ('C[C@]12C[C@H](CCCCCCNCCOC(=O)NCCCc3ccc(N(CCCl)CCCl)cc3)C3=C4CCC(=O)C=C4CCC3C1CC[C@@H]2O (some centres undefined)', 'TGI', 6.53);

Next item in the queue.
Ask | Please give measured TGI of the following entry: Fc1ccc(C2CC(c3cccc(Nc4ccncc4)c3)=NN2c2ccc(Cl)cc2)cc1 (centres undefined)
Reply | 2.95

----------
- System: U251 CNS
- ASSAY_NAME: NCI tumour cell line growth inhibition, 48 h
MEASUREMENT_TYPE: TGI

Sample answers from the record:
INSERT INTO results (molecule, value) VALUES
  ('COC1=C(N)C(=O)c2nc(C)ccc2C1=O', '5.69 µM'),
  ('Cc1ccc(S(=O)(=O)N2CCC(=O)c3cc(Br)ccc32)cc1', '> 35 µM'),
  ('COC(=O)C(Cc1ccccc1)NP(=O)(O)OCC1OC(n2cc(Br)c(=O)[nH]c2=O)CC1O (stereo not given)', '> 100 µM'),
  ('Brc1ccc(C2CC(c3cccc4ccccc34)=Nc3ccccc3S2)cc1 (stereo not given)', '> 100 µM'),
  ('O=C(O)CCCSC(=O)Nc1ccc(N=Nc2ccccc2)cc1', '> 100 µM');

Ask | Supply TGI value. Item: `C=CCN=c1sc2c(n1NC(=O)c1cc3ccc1CCc1ccc(cc1)CC3)C(=O)c1ccccc1C2=O`
Reply | 4.28 µM

Ask | Answer with the recorded TGI for the molecule listed here: `Cc1cc(C)n(-c2nsc3ccccc23)n1`
Reply | > 100 µM

Ask | Tell me measured TGI for `CN(/N=C/c1cccc2cccnc12)c1ccc([N+](=O)[O-])cc1[N+](=O)[O-]` please.
Reply | 29.1 µM
